target: Serine/threonine-protein kinase D3 (Homo sapiens) (UniProt O94806); conditions: at 1 µM;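 note: values are mean inhibition figures against PRKD3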
Sequence (O94806 whole entry): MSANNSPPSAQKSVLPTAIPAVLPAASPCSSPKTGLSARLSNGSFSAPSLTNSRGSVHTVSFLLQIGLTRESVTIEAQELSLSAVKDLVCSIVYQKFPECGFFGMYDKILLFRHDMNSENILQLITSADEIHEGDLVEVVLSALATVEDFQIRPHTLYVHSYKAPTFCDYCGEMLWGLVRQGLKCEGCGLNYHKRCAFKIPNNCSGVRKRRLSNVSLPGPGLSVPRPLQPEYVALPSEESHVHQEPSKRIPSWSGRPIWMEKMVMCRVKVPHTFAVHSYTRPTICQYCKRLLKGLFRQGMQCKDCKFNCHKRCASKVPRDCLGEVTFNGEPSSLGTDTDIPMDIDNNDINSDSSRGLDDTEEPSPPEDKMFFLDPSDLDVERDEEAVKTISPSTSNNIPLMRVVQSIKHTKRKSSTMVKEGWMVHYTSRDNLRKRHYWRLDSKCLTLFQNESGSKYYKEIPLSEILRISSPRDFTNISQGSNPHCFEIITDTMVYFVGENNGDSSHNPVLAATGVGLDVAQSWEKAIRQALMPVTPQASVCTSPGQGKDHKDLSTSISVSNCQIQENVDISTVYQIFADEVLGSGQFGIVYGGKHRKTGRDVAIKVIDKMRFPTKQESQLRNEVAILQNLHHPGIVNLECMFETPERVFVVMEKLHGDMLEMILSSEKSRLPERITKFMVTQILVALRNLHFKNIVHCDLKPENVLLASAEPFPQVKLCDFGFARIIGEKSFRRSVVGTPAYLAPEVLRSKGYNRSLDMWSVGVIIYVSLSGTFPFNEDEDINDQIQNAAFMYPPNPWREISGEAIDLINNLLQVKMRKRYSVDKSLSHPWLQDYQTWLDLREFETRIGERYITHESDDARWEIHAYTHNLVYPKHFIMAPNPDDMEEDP
For each record, write down the corresponding inhibition.
One number for each entry, in %.

[
  {
    "chemical-string": "Cc1cc(-c2ccco2)cc(C)c1/C=C/c1cncc(-c2nn[nH]n2)c1",
    "inhibition, %": 1.22
  },
  {
    "chemical-string": "COc1cccc(-n2ncc3c(N/N=C/c4ccncc4)ncnc32)c1",
    "inhibition, %": 9.03
  },
  {
    "chemical-string": "COc1cc(C=NNc2ncnc3c2cnn3Cc2ccccc2)ccc1O",
    "inhibition, %": -1.04
  },
  {
    "chemical-string": "NS(=O)(=O)c1ccc(-c2ccc3c(NC(=O)C4CC4)n[nH]c3c2)cc1",
    "inhibition, %": 0.5
  },
  {
    "chemical-string": "COc1cccc(COc2cc(-n3cnc4ccccc43)sc2C(N)=O)c1",
    "inhibition, %": 0.32
  }
]

Could you tell me inhibition for each of these compounds? They are listed below.
1. COc1cc2c(cc1Nc1nc(Nc3ccsc3C(N)=O)c3cc[nH]c3n1)N(C(=O)CN(C)C)CCC2
2. Nc1nonc1-c1nc2cnccc2n1C1CCCCC1

Output:
51.1
2.27

====

biological target: Tyrosine-protein kinase CSK (Homo sapiens); settings: at 0.1 µM;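 note: value given is the averaged percent inhibition of CSK kinase activity, from the GSK PKIS kinase inhibitor set screening panel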
experimental-endpoint: inhibition (%)
Give bare numbers, in %.

Look over these answered cases.
[
  {
    "chemical-string": "NC(=O)c1sc(-n2cnc3cc(C(F)(F)F)ccc32)cc1OCc1ccccc1Br",
    "assay-target": "Tyrosine-protein kinase CSK (Homo sapiens)",
    "assay-value": -3.78
  },
  {
    "chemical-string": "CCn1c(-c2nonc2N)nc2c(C#CC(C)(C)O)ncc(OC[C@@H]3CCCN3)c21",
    "assay-target": "Tyrosine-protein kinase CSK (Homo sapiens)",
    "assay-value": -1.37
  },
  {
    "chemical-string": "CCn1c(-c2nonc2N)nc2c(C#CC(C)(C)O)ncc(OCC3CCNCC3)c21",
    "assay-target": "Tyrosine-protein kinase CSK (Homo sapiens)",
    "assay-value": 5.4
  },
  {
    "chemical-string": "CCn1c(-c2nonc2N)nc2c(C#CCN)ncc(OCCCN)c21",
    "assay-target": "Tyrosine-protein kinase CSK (Homo sapiens)",
    "assay-value": -0.42
  },
  {
    "chemical-string": "Fc1ccc(-c2ncn(C3CCNCC3)c2-c2ccnc(Oc3ccccc3)n2)cc1",
    "assay-target": "Tyrosine-protein kinase CSK (Homo sapiens)",
    "assay-value": 1.9
  }
]

Could you tell me inhibition for each of these compounds? They are listed below.
1. Nc1nonc1-c1nc2cnccc2n1C1CCCCC1
2. COc1cccc(-n2ncc3c(N/N=C/c4ccncc4)ncnc32)c1
3. COc1cc(C=NNc2ncnc3c2cnn3Cc2ccccc2)ccc1O
4. COc1cccc(COc2cc(-n3cnc4ccccc43)sc2C(N)=O)c1
5. COc1cc2c(cc1Nc1nc(Nc3ccsc3C(N)=O)c3cc[nH]c3n1)N(C(=O)CN(C)C)CCC2
6. CCn1c(-c2nonc2N)nc2c(C#CC(C)(C)O)nc(O[C@@H](CN)c3ccccc3)cc21

Output:
1: -1.78; 2: 5.5; 3: -6.66; 4: -1.48; 5: -7.26; 6: -5

====

molecular target: Tyrosine-protein kinase JAK1 (Homo sapiens); details: at 0.1 µM
Description: GSK_PKIS: JAK1 mean inhibition at 0.1 uM [Nanosyn]
experimental-endpoint: inhibition

Look over these answered cases.
[
  {
    "chemical-string": "CCn1c(-c2nonc2N)nc2c(C#CC(C)(C)O)nc(O[C@@H](CN)c3ccccc3)cc21",
    "assay-target": "Tyrosine-protein kinase JAK1 (Homo sapiens)",
    "assay-value": "-1.37%"
  },
  {
    "chemical-string": "CCn1c(-c2nonc2N)nc2c(C#CCN)ncc(OCCCN)c21",
    "assay-target": "Tyrosine-protein kinase JAK1 (Homo sapiens)",
    "assay-value": "4.06%"
  },
  {
    "chemical-string": "CCn1c(-c2nonc2N)nc2c(C#CC(C)(C)O)ncc(OCC3CCNCC3)c21",
    "assay-target": "Tyrosine-protein kinase JAK1 (Homo sapiens)",
    "assay-value": "4.7%"
  }
]

Could you tell me inhibition for each of these compounds? They are listed below.
1. NS(=O)(=O)c1ccc(N/C=C2\C(=O)Nc3ccc4ncsc4c32)cc1
2. COc1cccc(-n2ncc3c(N/N=C/c4ccncc4)ncnc32)c1
3. COc1cccc(COc2cc(-n3cnc4ccccc43)sc2C(N)=O)c1
4. Nc1nonc1-c1nc2cnccc2n1C1CCCCC1
5. COc1cc2c(cc1Nc1nc(Nc3ccsc3C(N)=O)c3cc[nH]c3n1)N(C(=O)CN(C)C)CCC2

Output:
["5.09%", "5.43%", "-1.14%", "-2.62%", "3.36%"]

====

biological target: Tyrosine-protein kinase receptor UFO (Homo sapiens) (UniProt P30530); settings: at 0.1 µM;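 note: values are mean percent inhibition of AXL from the GSK PKIS screen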
Sequence (P30530 whole entry): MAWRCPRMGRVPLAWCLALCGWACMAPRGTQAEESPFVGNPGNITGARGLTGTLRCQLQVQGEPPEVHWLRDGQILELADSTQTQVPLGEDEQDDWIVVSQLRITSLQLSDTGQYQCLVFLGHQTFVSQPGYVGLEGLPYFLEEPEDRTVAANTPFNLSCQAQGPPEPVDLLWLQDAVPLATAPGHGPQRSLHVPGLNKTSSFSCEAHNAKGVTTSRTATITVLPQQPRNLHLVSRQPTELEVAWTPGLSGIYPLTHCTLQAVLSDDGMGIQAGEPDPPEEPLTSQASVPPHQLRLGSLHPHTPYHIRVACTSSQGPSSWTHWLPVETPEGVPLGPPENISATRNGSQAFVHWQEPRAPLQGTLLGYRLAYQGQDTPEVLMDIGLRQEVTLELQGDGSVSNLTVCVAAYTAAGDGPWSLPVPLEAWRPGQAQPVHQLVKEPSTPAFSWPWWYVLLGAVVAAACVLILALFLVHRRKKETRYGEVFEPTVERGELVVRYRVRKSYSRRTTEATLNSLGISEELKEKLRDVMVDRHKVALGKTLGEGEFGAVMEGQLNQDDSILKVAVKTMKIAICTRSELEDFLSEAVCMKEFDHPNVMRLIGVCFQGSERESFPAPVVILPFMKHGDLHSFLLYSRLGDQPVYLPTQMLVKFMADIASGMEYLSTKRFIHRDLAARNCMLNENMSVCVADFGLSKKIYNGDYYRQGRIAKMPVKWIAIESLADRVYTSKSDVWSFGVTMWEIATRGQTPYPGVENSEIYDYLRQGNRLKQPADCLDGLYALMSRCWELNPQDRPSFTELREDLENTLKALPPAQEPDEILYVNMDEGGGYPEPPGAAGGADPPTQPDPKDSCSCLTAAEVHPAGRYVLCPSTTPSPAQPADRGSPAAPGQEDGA
For each record, write down the corresponding inhibition.
Numbers only, in %.

Look over these answered cases.
[
  {
    "chemical-string": "CCn1c(-c2nonc2N)nc2c(C#CCN)ncc(OCCCN)c21",
    "inhibition [%]": 7.73
  },
  {
    "chemical-string": "NC(=O)c1sc(-n2cnc3cc(C(F)(F)F)ccc32)cc1OCc1ccccc1Br",
    "inhibition [%]": -0.22
  },
  {
    "chemical-string": "NS(=O)(=O)c1ccc(N/C=C2\\C(=O)Nc3ccc4ncsc4c32)cc1",
    "inhibition [%]": -3.83
  },
  {
    "chemical-string": "CCn1c(-c2nonc2N)nc2c(C#CC(C)(C)O)nc(O[C@@H](CN)c3ccccc3)cc21",
    "inhibition [%]": 1.96
  }
]

With those in mind, consider the next molecule.
Input: Answer with reported inhibition of NS(=O)(=O)c1ccc(-c2ccc3c(NC(=O)C4CC4)n[nH]c3c2)cc1
Output: -4.27

====

For each record, write down the corresponding inhibition.
molecular target: Tyrosine-protein kinase SYK (Homo sapiens); settings: at 0.1 µM;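 note: reported percentages are mean inhibition values for SYK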
Answers are plain numbers, in %.

[
  {
    "chemical-string": "CCn1c(-c2nonc2N)nc2c(C#CC(C)(C)O)nc(O[C@@H](CN)c3ccccc3)cc21",
    "experimental-endpoint": "inhibition",
    "result-units": "%",
    "assay-value": 1.9
  },
  {
    "chemical-string": "Fc1ccc(-c2ncn(C3CCNCC3)c2-c2ccnc(Oc3ccccc3)n2)cc1",
    "experimental-endpoint": "inhibition",
    "result-units": "%",
    "assay-value": 2.45
  }
]

Could you tell me inhibition for each of these compounds? They are listed below.
1. Cc1cc(-c2ccco2)cc(C)c1/C=C/c1cncc(-c2nn[nH]n2)c1
2. COc1cccc(COc2cc(-n3cnc4ccccc43)sc2C(N)=O)c1
3. COc1cc(C=NNc2ncnc3c2cnn3Cc2ccccc2)ccc1O

Output:
1: 0.05; 2: -0.33; 3: 4.57

====

tested on: Platelet-derived growth factor receptor alpha (Homo sapiens), P16234 [D842V]; settings: at 1 µM
Sequence (P16234 whole entry D842V): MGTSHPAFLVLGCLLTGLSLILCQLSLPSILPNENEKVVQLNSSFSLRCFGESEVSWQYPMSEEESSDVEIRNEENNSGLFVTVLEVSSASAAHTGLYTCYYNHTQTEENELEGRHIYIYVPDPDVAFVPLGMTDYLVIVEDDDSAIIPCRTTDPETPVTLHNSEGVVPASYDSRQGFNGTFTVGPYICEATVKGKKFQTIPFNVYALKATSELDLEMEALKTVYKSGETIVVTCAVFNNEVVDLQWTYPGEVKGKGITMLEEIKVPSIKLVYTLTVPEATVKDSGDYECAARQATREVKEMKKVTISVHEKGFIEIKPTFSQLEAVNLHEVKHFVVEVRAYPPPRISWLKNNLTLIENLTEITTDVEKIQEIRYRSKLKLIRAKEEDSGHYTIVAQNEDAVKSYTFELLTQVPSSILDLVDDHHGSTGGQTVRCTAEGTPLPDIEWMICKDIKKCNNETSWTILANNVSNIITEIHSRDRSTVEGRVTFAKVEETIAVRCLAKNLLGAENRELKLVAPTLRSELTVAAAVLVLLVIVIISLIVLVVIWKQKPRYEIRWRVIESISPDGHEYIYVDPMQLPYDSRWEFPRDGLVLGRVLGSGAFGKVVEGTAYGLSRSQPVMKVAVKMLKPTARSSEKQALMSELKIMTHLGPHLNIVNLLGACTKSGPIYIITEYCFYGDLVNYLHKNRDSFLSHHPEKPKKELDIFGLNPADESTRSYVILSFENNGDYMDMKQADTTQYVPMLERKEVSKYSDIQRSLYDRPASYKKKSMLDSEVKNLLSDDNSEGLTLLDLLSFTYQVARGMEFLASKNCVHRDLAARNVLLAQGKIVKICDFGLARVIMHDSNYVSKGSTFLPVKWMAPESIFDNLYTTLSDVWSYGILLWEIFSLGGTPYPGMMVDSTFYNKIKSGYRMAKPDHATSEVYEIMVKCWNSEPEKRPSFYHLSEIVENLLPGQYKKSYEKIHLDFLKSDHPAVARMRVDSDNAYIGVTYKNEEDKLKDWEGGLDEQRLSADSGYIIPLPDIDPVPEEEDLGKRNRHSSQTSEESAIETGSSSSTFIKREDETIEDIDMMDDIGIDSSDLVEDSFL
inhibition of 7% or higher: Fulfilled. Under 7%: Not fulfilled.

Worked set:
[
  {
    "chemical-string": "NC(=O)c1sc(-n2cnc3cc(C(F)(F)F)ccc32)cc1OCc1ccccc1Br",
    "assigned-label": "Not fulfilled"
  },
  {
    "chemical-string": "CCn1c(-c2nonc2N)nc2c(C#CC(C)(C)O)ncc(OCC3CCNCC3)c21",
    "assigned-label": "Fulfilled"
  }
]

Input: Given Fc1ccc(-c2ncn(C3CCNCC3)c2-c2ccnc(Oc3ccccc3)n2)cc1 , state whether its inhibition is at least 7%.
Output: Not fulfilled

Input: Given Cc1cc(-c2ccco2)cc(C)c1/C=C/c1cncc(-c2nn[nH]n2)c1 , state whether its inhibition is at least 7%.
Output: Not fulfilled

Input: Given Nc1nonc1-c1nc2cnccc2n1C1CCCCC1 , state whether its inhibition is at least 7%.
Output: Fulfilled

Input: Given CCn1c(-c2nonc2N)nc2c(C#CC(C)(C)O)nc(O[C@@H](CN)c3ccccc3)cc21 , state whether its inhibition is at least 7%.
Output: Fulfilled

Input: Given CCn1c(-c2nonc2N)nc2c(C#CCN)ncc(OCCCN)c21 , state whether its inhibition is at least 7%.
Output: Fulfilled

====

target: BDNF/NT-3 growth factors receptor (Homo sapiens) (UniProt Q16620); conditions: at 0.1 µM;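 note: each value is a mean percent inhibition of TrkB kinase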
Sequence (Q16620 32-822 limits assumed): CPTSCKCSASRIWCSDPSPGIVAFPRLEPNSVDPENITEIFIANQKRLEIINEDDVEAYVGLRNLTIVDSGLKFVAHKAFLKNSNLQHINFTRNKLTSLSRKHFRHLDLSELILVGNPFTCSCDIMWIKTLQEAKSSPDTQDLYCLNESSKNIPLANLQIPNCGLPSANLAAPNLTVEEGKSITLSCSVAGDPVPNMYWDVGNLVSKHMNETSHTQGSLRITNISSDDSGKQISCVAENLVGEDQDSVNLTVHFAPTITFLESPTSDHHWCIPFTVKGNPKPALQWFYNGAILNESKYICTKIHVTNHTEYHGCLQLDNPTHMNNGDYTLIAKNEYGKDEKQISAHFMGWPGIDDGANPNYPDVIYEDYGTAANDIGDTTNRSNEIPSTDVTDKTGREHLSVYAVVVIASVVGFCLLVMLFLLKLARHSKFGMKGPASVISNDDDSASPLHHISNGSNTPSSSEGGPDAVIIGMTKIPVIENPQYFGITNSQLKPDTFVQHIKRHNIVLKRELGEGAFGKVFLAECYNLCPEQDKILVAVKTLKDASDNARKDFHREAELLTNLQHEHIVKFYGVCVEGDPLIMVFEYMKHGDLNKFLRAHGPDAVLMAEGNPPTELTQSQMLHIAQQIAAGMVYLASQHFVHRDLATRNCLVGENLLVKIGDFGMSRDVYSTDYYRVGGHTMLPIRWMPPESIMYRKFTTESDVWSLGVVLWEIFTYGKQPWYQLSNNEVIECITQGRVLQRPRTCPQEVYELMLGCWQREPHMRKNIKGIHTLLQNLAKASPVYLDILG
experimental-endpoint: inhibition (%)
Answers are plain numbers, in %.

Look over these answered cases.
[
  {
    "chemical-string": "CCn1c(-c2nonc2N)nc2c(C#CC(C)(C)O)ncc(OCC3CCNCC3)c21",
    "assay-value": 3.08
  },
  {
    "chemical-string": "NS(=O)(=O)c1ccc(-c2ccc3c(NC(=O)C4CC4)n[nH]c3c2)cc1",
    "assay-value": 0.8
  },
  {
    "chemical-string": "NS(=O)(=O)c1ccc(N/C=C2\\C(=O)Nc3ccc4ncsc4c32)cc1",
    "assay-value": 19.1
  },
  {
    "chemical-string": "CCn1c(-c2nonc2N)nc2c(C#CC(C)(C)O)nc(O[C@@H](CN)c3ccccc3)cc21",
    "assay-value": -1.86
  },
  {
    "chemical-string": "CCn1c(-c2nonc2N)nc2c(C#CCN)ncc(OCCCN)c21",
    "assay-value": -0.67
  },
  {
    "chemical-string": "COc1cc(C=NNc2ncnc3c2cnn3Cc2ccccc2)ccc1O",
    "assay-value": 0.74
  }
]

With those in mind, consider the next compound.
Input: Answer with reported inhibition of Fc1ccc(-c2ncn(C3CCNCC3)c2-c2ccnc(Oc3ccccc3)n2)cc1
Output: 1.68
